Measured pIC50, listed per entry.
# System: axenic Leishmania donovani MHOM-ET-67/L82 amastigotes
# Test Method Notes: In vitro antiprotozoal assay, axenic amastigotes
# Format: cell-based
# Condition Parameters: axenic amastigotes; read-out: L.don.ax. IC50
pIC50: −log10 of the molar value. Square brackets hold non-standard residues; d marks the D form. Peptide text beside a SMILES is read from it. * marks the point of attachment. NH((S)CH(Me)CH2NMe2) = C[C@@H](CN(C)C)N*; NH(1-CH2NMe2-cBu) = CN(C)CC1(N*)CCC1; Gly(octyl) = CCCCCCCC[C@H](N)C(=O)O; Oxazole4CO(2-Me) = Cc1nc(C(=O)*)co1; Thiophene2carbonyl = O=C(c1cccs1)*; d(hCha) = N[C@H](CCC1CCCCC1)C(=O)O; Aib = CC(C)(N)C(=O)O; βAla = NCCC(=O)O

# Compound, Test System, pIC50
measured = [
    ("Cc1nc(C(=O)N2CCC[C@H]2C(=O)N[C@@H](Cc2ccccc2)C(=O)N[C@@H](CC(C)C)C(=O)NC(C)(C)C(=O)N[C@@H](CC(C)C)C(=O)N[C@@H](CC(C)C)C(=O)NC(C)(C)C(=O)NC(C)(C)C(=O)NCCC(=O)NC2(CN(C)C)CCC2)co1 [Compound 6328] (HELM PEPTIDE1{[Cc1nc(C(=O)[*:2])co1].P.F.L.[Aib].L.L.[Aib].[Aib].[bAla].[CN(C)CC1(N[*:1])CCC1]}$$$$V2.0)", "axenic Leishmania donovani MHOM-ET-67/L82 amastigotes", 6.42),
    ("CCCCCCCC[C@H](NC(=O)[C@@H]1CCCN1C(=O)c1cccs1)C(=O)N[C@@H](CC(C)C)C(=O)NC(C)(C)C(=O)N[C@@H](CC(C)C)C(=O)N[C@@H](CC(C)C)C(=O)NC(C)(C)C(=O)NC(C)(C)C(=O)NCCC(=O)N[C@@H](C)CN(C)C [Compound 5904] (Thiophene2carbonyl-P[Gly(octyl)]L[Aib]LL[Aib][Aib][βAla]-{NH((S)CH(Me)CH2NMe2)})", "axenic Leishmania donovani MHOM-ET-67/L82 amastigotes", 8.51),
    ("Cc1nc(C(=O)N2CCC[C@@H]2C(=O)N[C@H](CCC2CCCCC2)C(=O)N[C@H](CC(C)C)C(=O)NC(C)(C)C(=O)N[C@H](CC(C)C)C(=O)N[C@H](CC(C)C)C(=O)NC(C)(C)C(=O)NC(C)(C)C(=O)NCCC(=O)NC2(CN(C)C)CCC2)co1 [Compound 7050] ({Oxazole4CO(2-Me)}-[dP][d(hCha)][dL][Aib][dL][dL][Aib][Aib][βAla]-{NH(1-CH2NMe2-cBu)})", "axenic Leishmania donovani MHOM-ET-67/L82 amastigotes", 8.29),
]

###

# Test Method Notes: Cytotoxicity assay (Alamar Blue) on L6-cells
# Type: cell-based, rat
# Condition Parameters: rat
Peptide text beside a SMILES is read from it.
Quantity: IC50 at 68 h (µM)

# Compound, Obs Value
rows = [
    ("Cc1nc(C(=O)N2CCC[C@H]2C(=O)N[C@@H](Cc2ccccc2)C(=O)N[C@@H](CC(C)C)C(=O)NC(C)(C)C(=O)N[C@@H](CC(C)C)C(=O)N[C@@H](CC(C)C)C(=O)NC(C)(C)C(=O)NC(C)(C)C(=O)NCCC(=O)NC2(CN(C)C)CCC2)co1 [Compound 6328] (HELM PEPTIDE1{[Cc1nc(C(=O)[*:2])co1].P.F.L.[Aib].L.L.[Aib].[Aib].[bAla].[CN(C)CC1(N[*:1])CCC1]}$$$$V2.0)", 8.71),
    ("Cc1nc(C(=O)N2CCC[C@H]2C(=O)N[C@@H](CC2CCCCC2)C(=O)N[C@@H](CC(C)C)C(=O)NC(C)(C)C(=O)N[C@@H](CC(C)C)C(=O)N[C@@H](CC(C)C)C(=O)NC(C)(C)C(=O)NC(C)(C)C(=O)NCCC(=O)NC2(CN(C)C)CCC2)co1 [Compound 7059] (HELM PEPTIDE1{[Cc1nc(C(=O)[*:2])co1].P.[Cha].L.[Aib].L.L.[Aib].[Aib].[bAla].[CN(C)CC1(N[*:1])CCC1]}$$$$V2.0)", 6.85),
]
